tested on: recombinant NL-Rluc virus (NL4-3 with Renilla Luciferase gene) in MT-2 cells; assay: Inhibition of HIV replication (NL-Rluc luciferase reporter virus, MT-2 cells); format: cell-based, human immunodeficiency virus (HIV); conditions: NL43, 120 h, read-out: Activity
pEC50: −log10 of the molar value. Structures can show the parent of a compound that is named as a salt.
measurement type: pEC50

- molecule: "Cc1nc2cc(-c3cccc(-c4cncc(F)c4)c3)nn2c(-c2cc(F)c3c(c2C)CCCO3)c1[C@H](OC(C)(C)C)C(=O)O"
  target of assay: "recombinant NL-Rluc virus (NL4-3 with Renilla Luciferase gene) in MT-2 cells"
  pEC50: "> 7.00"
- molecule: "Cc1nc2cc(-c3ccnc(OCc4ccccc4)c3)nn2c(-c2cc(F)c3c(c2C)CCCO3)c1C(OC(C)(C)C)C(=O)O (stereo not drawn) [Example 107, TFA salt]"
  target of assay: "recombinant NL-Rluc virus (NL4-3 with Renilla Luciferase gene) in MT-2 cells"
  pEC50: "> 7.00"

# context switch: different molecule, same pEC50
Item COc1ccc(-c2c(C(OC(C)(C)C)C(=O)O)c(C)nc3cc(-c4ccccc4)nn23)cc1C (stereo not drawn) : provide pEC50
< 6.00
